Where do the numbers come from? From patent US20130266517A1.

# Tested On: alpha-synuclein (natural human wildtype alpha-synuclein) (human, UniProt P37840 1-140)
# Experiment: BLI, ForteBio Octet QK; apparent KD
Value Type: Kd

Humanized 1H7 H2L1 (Hu1H7VHv2-Hu1H7VLv1) (antibody, V domains shown) VH: QVQLVQSGAEVKKPGASVKVSCKASGYSFTSYYIHWVRQAPGQGLEWIGWIYPGSGNTKYSEKFKGRATLTADTSTSTAYMELRSLRSDDTAVYFCARDGCYGFAYWGQGTLVTVSS VL: DIQLTQSPSSLSASVGDRVTITCKASQSVDYDGDSYMNWYQQKPGKAPKFLICAASNLESGVPSRFSGSGSGTDFTLTISSLQPEDAATYYCQQSNEDPFTFGQGTKLEIK : 0.0072 nM
Humanized 1H7 H1L4 (Hu1H7VHv1-Hu1H7VLv4) (antibody, V domains shown) VH: QVQLVQSGAELKKPGASVKVSCKASGYSFTSYYIHWVKQAPGQGLEWIGWIYPGSGNTKYSEKFKGRATLTADTSTSTAYMELRSLRSDDTAVYFCARDGCYGFAYWGQGTLVTVSS VL: DIQLTQSPSSLSASVGDRVTITCKASQSVDYDGDSYMNWYQQKPGKAPKFLIYAASNLESGVPSRFSGSGSGTDFTLTISSLQPEDFATYYCQQSNEDPFTFGQGTKLEIK : 3.3 nM
Humanized 1H7 H5L3 (Hu1H7VHv5-Hu1H7VLv3) (antibody, V domains shown) VH: QVQLVQSGAEVKKPGASVKVSCKASGYTFTSYYIHWVRQAPGQGLEWMGWIYPGSGNTKYSEKFKGRATMTADTSTSTAYMELRSLRSDDTAVYYCARDGSYGFAYWGQGTLVTVSS VL: DIQLTQSPSSLSASVGDRVTITCKASQSVDYDGDSYMNWYQQKPGKAPKFLICAASNLESGVPSRFSGSGSGTDFTLTISSLQPEDFATYYCQQSNEDPFTFGQGTKLEIK : 2.6 nM
